Would you mind telling me the reported apparent KD of MS2 coat protein of each entry?
test system: MS2 coat protein; experiment: apparent KD of MS2 coat protein; designed switch direction (-1 OFF switch, 1 ON switch): -1; higher = weaker reporter binding; conditions: input ligand: FMN 200 uM
Give the number; nM is assumed, so skip it.

Which apparent KD of MS2 coat protein value belongs to GGACAUAAAGUCAGGAUAUUAAUGCGAACAAGCGAUGAGAAGGGACAUGAGGAUCACCCAUGUGAUUCUCAUCA [Edvebe] (Eterna round: R97, puzzle: Brourd's mod of Exclusion 4) ?
17.6

Which apparent KD of MS2 coat protein value belongs to GGUACUCAUGUGAGGAUAUGCUCGAAUGCAGACGAGCAGAAGGUACAUGAGGAUCACCCAUGUACCAUAAAGUA [Eternabot (Original) Solution 1] (Eterna round: R97, puzzle: Brourd's mod of Exclusion 4) ?
23.6

Which apparent KD of MS2 coat protein value belongs to CUUAUGUCAGGAUAUUAGUAGUAAAUGAAUAAAAUUAUUACUGAGAAGGGACAUGAGGAUCACCCAUGUUCCUC [Mat - Exclusion 4 - Eli Mod - D4] (Eterna round: R97, puzzle: Exclusion 4) ?
149

Which apparent KD of MS2 coat protein value belongs to AAUCAACAUGAGGAUCACCCAUGUGAGGAUAUAGGCAUGCAUGCAUGCAUGCAUGCAACUAGAAGGCACAAUAC [Design #18] (Eterna round: R97, puzzle: Exclusion 1) ?
58.2

Which apparent KD of MS2 coat protein value belongs to CCUUAGUCACAGGAUAUGCUCAUCUAAUGAUGAGCAGAAGGGUGGACAUGAGGAUCACCCAUGUUUAUCAAGGG [Omei Ex6 E2] (Eterna round: R97, puzzle: Exclusion 6) ?
249

Which apparent KD of MS2 coat protein value belongs to CAGAAUUGAGGAUAUGAUCAAUUUAACAUGAGGAUCACCCAUGUAUGGGAAUGAUUCUGAUCAGAAGGCGAUUCUU [Exclusion 5: 1:a] (Eterna round: R96, puzzle: Exclusion 5) ?
960

Which apparent KD of MS2 coat protein value belongs to UCCAAGCGGAAGCAAUGAAACAUGAGGAUCACCCAUGUCCCGGUGGUCAUUCACCCAAGCUUUUUGUAGUCAACCUU [Eternabot (L1) Solution 42] (Eterna round: R97, puzzle: Sensor, turn-off variant 1) ?
249

Which apparent KD of MS2 coat protein value belongs to ACGGUCAUAGGAUAUACUGGGACAGCGCUAAGGCGCCCUUGACAUGAGGAUCACCCAUGUAGAAGGAUGUCCGA [EX2 C.1] (Eterna round: R97, puzzle: Exclusion 2) ?
152

Which apparent KD of MS2 coat protein value belongs to CACCGUUAUAUAGGAUAUGUUACAUGAGGAUCACCCAUGUAAUAAAUGAGAAUUUCGAAUGUAAUACAGAAGGAUAGAAUCGGC [Ostracism 72 - Jieux - Exclusion NG 2] (Eterna round: R96, puzzle: Exclusion NG 2) ?
27.2

Which apparent KD of MS2 coat protein value belongs to GUUGUUACUGAGGAUAUUAUUUUAUUCGAUUGAUAAGAAGGCAGUACAUGAGGAUCACCCAUGUGGGUAGCUAG [Polaris20] (Eterna round: R97, puzzle: Exclusion 6) ?
434

Which apparent KD of MS2 coat protein value belongs to UAUUUACAUGAGGAUCACCCAUGUCAGGAUAUGCGUCGAUCGUCGAAAGACGAUAGCCGCAGAAGGGACAAUAU [LRO-Excl01-20 mod derived from EliFisker 4.24] (Eterna round: R97, puzzle: Exclusion 1) ?
246

Which apparent KD of MS2 coat protein value belongs to AAGUCAGCAGGAUAUGCGAUGUUGGGCUAGGUAGCGUGACCACAUGAGGAUCACCCAUGUAGAAGGGCUGGCUA [EX2 Malc#36] (Eterna round: R96, puzzle: Exclusion 2) ?
45.6

Which apparent KD of MS2 coat protein value belongs to UGCAUGUAAGGAUAUGCAUCCGCCGACGUCCCGGCGGCACAGCAGAAGGUACAUGAGGAUCACCCAUGUGUCCC [Qusousar] (Eterna round: R96, puzzle: Exclusion 4) ?
449

Which apparent KD of MS2 coat protein value belongs to GGUCGUUUAGUGAGGAUAUGCAGCGUCAUAGCGCAGCAGAAGGCACAUGAGGAUCACCCAUGUCCUCCCAAAAG [Eternabot (L1) Solution 9] (Eterna round: R97, puzzle: Brourd's mod of Exclusion 4) ?
253

Which apparent KD of MS2 coat protein value belongs to CCAUAUAACUGAGGAUAUACGCACCACUAACUAGUAGAAGGCAGACAUGAGGAUCACCCAUGUGAUUUCUCAAUAUUAUACAUC [Prohibition 74 - Jieux - Exclusion NG 1] (Eterna round: R96, puzzle: Exclusion NG 1) ?
927

Which apparent KD of MS2 coat protein value belongs to UAUUAGUGAGGAUAUGAGUCGUAGAACAAUAGUACUACGUCUCAGAAGGCACAUGAGGAUCACCCAUGUUCCUU [Mod of Fisker - Jieux - Exclusion 4] (Eterna round: R97, puzzle: Exclusion 4) ?
71.3

Which apparent KD of MS2 coat protein value belongs to UUUUAUAGAGGAUAUGCGUGAAUAUAUAUUCAUGGAAAUUUACAUGAGGAUCACCCAUGUAGAAGGUUGUGUUU [LRO-Excl2-20-mod 090 by JR] (Eterna round: R97, puzzle: Exclusion 2) ?
13.3

Which apparent KD of MS2 coat protein value belongs to CUUUACAAGCUAAGAUCCUACAUGAGGAUCACCCAUGUGGUCCGGUGACGUGAGUCACCGGACUUAGCUCGUCUUGG [salish99_S_TOV1_R5_095] (Eterna round: R97, puzzle: Sensor, turn-off variant 1) ?
30.1

---

test system: K4 kissing-loop RNA reporter; test: apparent KD of K4 kissing-loop reporter; higher = weaker reporter binding; settings: Eterna round: R107; input ligand: FMN 200 uM;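 also: bound reporter read as fluorescence of individual clusters on recovered sequencing chips by microscopy, with normalized cluster intensities fitted with a binding model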
Would you mind telling me the reported apparent KD of K4 kissing-loop reporter of each entry?
Please append the unit to your numeric answer.

Which apparent KD of K4 kissing-loop reporter value belongs to CGUGCCCAGCCGGAUACCAGUGACCCGCUGGGAACCGCGGGCCCAGAGUGAUGUUCGGGACACCCUUGGCAGCCGCCUGGGCGGU [#2 Same State - Theophylline B Attempt #11 (HarryS)] ?
1170 nM

Which apparent KD of K4 kissing-loop reporter value belongs to UCUGUGUCCGCGGCCGCCACUCGGGACUAAGUGAUGUUUAGUCCUUCAGAAUAAAGAAGUGAUGAGAGGACCGGGCGAUCGCACC [theeternabot_sameState_KL_Trp_B_2] ?
100 nM

Which apparent KD of K4 kissing-loop reporter value belongs to AAGGUAUCACCAACUUGUAACAUAGGUGAUACCAGCAUCGAAAGAUGCCCUUGGCAGCACCAACUUGCAGUGAUGUUGCAAGUAA [(T)'-(H)'-(T1)-(T2)-(H1)-(H2)_Design11] ?
166 nM

Which apparent KD of K4 kissing-loop reporter value belongs to AAUCUCGUCCUGGAUACCAGUCGCACGGUUUGUCAUGUCAGCCAGUGAUGUUGCCUGCAUGACCCUUGGCAGCCAUUCUAUGAAU [theeternabot_exclusion_KL_Theo_B_45] ?
284 nM

Which apparent KD of K4 kissing-loop reporter value belongs to GGAUAGGAUAGAGGAUAUGGUUUAUGCAGGAAUAACUUAUCGUGUAAAUCCAUAGGGAGUGAUGUUCCAGAAGGCUGUCCUAUCG [MatMod 13 - Jieux - Exclusion - FMN B] ?
408 nM

Which apparent KD of K4 kissing-loop reporter value belongs to UAUAUAGUGACGGCCGCCACUAUAUUAAUGUUUUUGUUAGAGUGAUGUUUUGUUUUUUAAUUUUAUAGGACCGGGUUAUAUGUUA [xnxmullin] ?
275 nM

Which apparent KD of K4 kissing-loop reporter value belongs to CUCGUGGGUUUGAGAGGGCUUGUGGGAAGUGAGGAUAUUUAGGGAGAAAGAAGGCACUAUAGAAUAUAGUGAUGUUAUAUAUGGG [SSFMNA.Q] ?
313 nM

Which apparent KD of K4 kissing-loop reporter value belongs to AAGGUUGUGCAUGGGAGUGAUGUUCCCAAGCAGGAUAUCGCUCACGCGAGAAGGGCUAGCACAACCGCUCAAGAAACUUGAGCAA [Omei KL FMN A SS C v5] ?
121 nM

Which apparent KD of K4 kissing-loop reporter value belongs to UGACUGGACUGAAGGAGCGCGCGAGACAAAGUCUCGAACUGGUAGUGAUGUUAUCAAAUAACGCAGGUAGGUCGCAGUCUAGUCU [ArgBS 12 #SwitchBubble #StaticStem] ?
251 nM

Which apparent KD of K4 kissing-loop reporter value belongs to AGAUUCGACACGGCCGCCACUCGUGGUGGAUUAUCCUAUGUAAGACAUGAGUGAUGUUCAUGUACGAGGACCGGGUGUUGAGUCU [KL-XTryp-B5 #analogue] ?
496 nM

Which apparent KD of K4 kissing-loop reporter value belongs to CCAUUCAUUUACGAUACCAGUCUAAUAUAUUGAAUCAAAACCCUCGCCGAGUGAUGUUCGGACCCUUGGCAGCGUCUGCGAGAGG [ddrdkmullin] ?
596 nM
